measurement_protocol: chemical genetic growth profiling, strain panel (AID 1159580);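 note: tested at 20 µM; growth read once vehicle control cultures reached saturation at 30 °C; 1 = growth at the plate median or of vehicle wells; lower values mean less growth of the strain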
assay_setup: S. cerevisiae deletion strains, growth OD, locus YER155C, strain BEM2, active compounds read low
Out of some 5,500 compounds screened, about 2,000 (36%) were called active. Inconclusive results (about 18%) are left out. This is one part of the list.
# normalized growth listing for each entry below
# output: bare number, no unit

// worked examples, normalized growth included
Oc1cccc2cccnc12 : 0.503
CC1(C)CC23C(=O)CCC(O)C2(C)CCC13 (stereo not drawn) : 1
O=C(O)CCC(=O)OC[C@@H](NC(=O)C(Cl)Cl)[C@H](O)c1ccc([N+](=O)[O-])cc1 : 0.989
C/C(=C\CO)CC[C@H](C)CCC[C@H](C)CCCC(C)C : 1.02
O=C(N[C@@H](CO)[C@H](O)c1ccc([N+](=O)[O-])cc1)C(Cl)Cl : 1

Ask: // normalized growth lookup, key: CC(C)Cn1c(=O)n(C)c(=O)c2[nH]cnc21
Reply: 0.984

Ask: Next entry: CC(C)[C@@H]1CC[C@@H](C)CC1=O
Reply: 0.998

Ask: One more compound: CC(C)N1C(=O)c2ccccc2NS1(=O)=O
Reply: 0.994

Ask: Also COC(=O)C[C@H]1C(C)(C)[C@H](O)[C@@H]2CC3=C4CC(O)O[C@@H](c5ccoc5)[C@]4(C)CCC3[C@@]1(C)C2=O (stereo partly drawn) , if possible.
Reply: 1

Ask: Queued: C[C@H]1C(=O)CCC2[C@]3(C)CC[C@@]4(C)C5CC(C)(C)CC[C@]5(C)CC[C@]4(C)C3CC[C@@]21C (stereo partly drawn)
Reply: 1.03

Ask: Also, CC(=O)OC[C@@]1(O)C[C@@]23CCC4c5ccoc5CC[C@]4(C)C2CC[C@@H]1C3 (stereo partly drawn) please.
Reply: 0.972
